tested on: Aedes aegypti neuropeptide Y-like receptor 7 (NPYLR7); experiment: agonists of mosquito NPYLR7 receptor, primary screen, cell-based, Aedes aegypti, calcium fluorescence, mosquito biting behavior (AID 1259423); conditions: HEK293T NPYLR7/Galpha15, GCaMP6s calcium fluorescence; at 10 µM
About 410 (0.15%) of roughly 270,000 compounds were called active. No stated cut-off is given here; in the data, active means activation above about 40%; inactive means the rest, inconclusive results apart. This excerpt belongs to a sample that is enriched for actives.
Choose the fitting class; nothing outside T (active), F (inactive) is accepted.

Use the examples below as a reference point.
>>> label_class("O=C(O)c1[nH]ncc1CN1CCc2onc(-c3ccc(C(F)(F)F)cc3)c2C1")
"T"
>>> label_class("CCOC(=O)C(C)Sc1ccc(NC(=O)C(C)C)nn1 (stereo unspecified)")
"F"
>>> label_class("COc1ccc(OC)c(S(=O)(=O)N2CCCC(c3nc4ccccc4s3)C2)c1 (stereo unspecified)")
"F"

Recorded call for CCN1C(=O)CSC1=C(C#N)C(N)=O ?
F

Recorded call for COC(=O)Cn1cc(C=C(C#N)C(=O)NCCc2c[nH]c3ccccc23)c2ccccc21 ?
F

Recorded call for O=C1CCC(C(=O)N(Cc2ccc(F)cc2)C2CC2)=NN1c1ccccc1 ?
F

Recorded call for CCN(CC)c1ccc2cc(-c3nnc(Nc4ccccc4F)s3)c(=O)oc2c1 ?
F
